- testedTarget: DNA dC->dU-editing enzyme APOBEC-3G (Homo sapiens)
- methodNotes: qHTS for inhibitors of Vif-A3G interactions: Cherry picks counterscreen;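 also: hits raise yellow fluorescence by blocking Vif-driven A3G-eYFP degradation; nearly all actives have a fitted effect of over 70% in size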;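 as to max response: max response given as percent of control signal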
- conditionContext: HeLa A3G-eYFP + Vif, eYFP fluorescence, 24 h
Hit rate of the full screen: of about 2,100 compounds, about 1,100 (52%) were called active. Roughly 27% stayed inconclusive and do not appear here. So high a share suggests a set chosen from earlier hits. Some of the results follow.
quantityMeasured: max response (%)
Kindly provide the numeric value in % only, without the unit symbol.

Would you please look over these solved cases?
CC(=O)Oc1c(-c2ccc(Br)o2)oc2ccccc2c1=O    -10.4
COc1cc2nc(SCC(=O)NCc3ccco3)n(Cc3ccc(Cl)cc3)c(=O)c2cc1OC    -29.6
COc1ccc(C(=O)C(C)[n+]2ccc(C)c3ccccc32)cc1[N+](=O)[O-] (stereo not given)    3.16
Cc1ccc(-c2nc(SCCOc3ccccc3C)n3[nH]c(=O)cc3n2)cc1    23

Enquiry: Consider the molecule Cc1ccc2c(c1C)NC(=O)CC(c1ccccc1O)=N2 and give its recorded max response.
Return: -6.13

Enquiry: Consider the molecule Cc1cc(-c2ccccc2)c2c3c(c(-c4ccccc4)n2n1)c(=O)n(C)c(=O)n3C and give its recorded max response.
Return: 9.15

Enquiry: Consider the molecule Cc1ccc(-n2c(=O)c3ccc(C(=O)NCc4ccccc4Cl)cc3n(CC(=O)Nc3cccc(Cl)c3)c2=O)cc1 and give its recorded max response.
Return: -24

Enquiry: Consider the molecule CCCCCCn1c(=O)[nH]c2nc3cc(N)ccc3nc2c1=O and give its recorded max response.
Return: 36.1

Enquiry: Consider the molecule CCC(=Nc1ccccc1O)C1=C(O)CC(c2ccccc2)CC1=O (stereo not given) and give its recorded max response.
Return: 16.4

Enquiry: Consider the molecule Cc1ccc(NC(=O)CSc2ccccc2NC(=O)c2cccc(Cl)c2)cc1Cl and give its recorded max response.
Return: 5.07

----------
- testedTarget: DNA dC->dU-editing enzyme APOBEC-3G (Homo sapiens) (UniProt Q9HC16)
- Sequence (Q9HC16 whole entry, looked up): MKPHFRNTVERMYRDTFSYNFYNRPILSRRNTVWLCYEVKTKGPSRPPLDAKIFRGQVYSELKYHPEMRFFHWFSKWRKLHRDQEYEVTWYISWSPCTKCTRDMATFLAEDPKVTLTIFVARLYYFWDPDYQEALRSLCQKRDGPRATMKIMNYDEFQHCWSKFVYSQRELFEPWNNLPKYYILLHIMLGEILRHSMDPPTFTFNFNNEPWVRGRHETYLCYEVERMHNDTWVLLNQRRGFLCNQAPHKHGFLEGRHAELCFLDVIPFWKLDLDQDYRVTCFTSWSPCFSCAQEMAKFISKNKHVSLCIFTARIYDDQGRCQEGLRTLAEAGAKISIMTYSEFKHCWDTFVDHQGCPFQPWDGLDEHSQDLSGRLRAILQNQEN
- methodNotes: qHTS for inhibitors of Vif-A3G interactions: Cherry picks counterscreen;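 also: hits raise yellow fluorescence by blocking Vif-driven A3G-eYFP degradation; nearly all actives have a fitted effect of over 70% in size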; also: potency is read from the fitted curve at half-maximal effect
- conditionContext: HeLa A3G-eYFP + Vif (tagged APOBEC3G with the HIV-1 protein that degrades it), eYFP fluorescence, 24 h
About 1,100 (52%) of roughly 2,100 compounds were called active. Not shown: some 27% with an inconclusive outcome. So high a share suggests a set chosen from earlier hits. The list shows a part of the results.
quantityMeasured: Potency

Would you please look over these solved cases?
COc1ccc(NC(=O)C2Cc3c(-c4cccc(NC(C)=O)c4)ccnc3O2)cn1 (centres undefined)    14 µM (active)
Cc1ccc(C=Nc2ccccc2C(N)=O)s1    2.5 µM (active)
Cc1cccc(C=Nc2ccccc2C(N)=O)c1    9.94 µM (active)
CCOC(=O)Nc1cc2c(c(N)n1)N=C(c1ccccc1)CN2    0.058 µM (active)
COc1cccc(N2CCN(Cc3nc4scc(-c5ccccc5)c4c(=O)[nH]3)CC2)c1    12.5 µM (active)

Enquiry: Consider the compound Cc1ccc2c(c1)sc(-c1ccc(N(C)C)cc1)[n+]2C and give its recorded Potency.
Return: 2.91 µM (active)

Enquiry: Consider the compound COc1ccc(-c2csc(NC(=S)NC(=O)/C=C/c3ccco3)n2)cc1Br and give its recorded Potency.
Return: 3.14 µM (active)

Enquiry: Consider the compound Cc1nc2c3cc(F)ccc3n(Cc3ccccc3F)c2s1 and give its recorded Potency.
Return: 14 µM (active)

Enquiry: Consider the compound O=c1[nH]c(CN2CCN(c3ccccc3)CC2)nc2scc(-c3ccccc3)c12 and give its recorded Potency.
Return: 9.2 µM (active)

Enquiry: Consider the compound COc1cc2nc(/C=C/c3ccc(N(C)C)cc3)sc2cc1SC and give its recorded Potency.
Return: 5.17 µM (active)
